- METHOD: Trypanosoma cruzi growth suppression in host cells – NIH3T3 host cells, beta-gal luminescence, confirmation (AID 2044);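 note: intracellular parasites grown in NIH/3T3 mouse fibroblasts as host cells; luminescent beta-galactosidase reporter signal from transgenic T. cruzi replicating inside host cells; inhibitors lower the luminescence signal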
- Format: functional, cell-based
Active and inactive are the calls of the source. Cut-off read from the data, not from the text of the source: actives have a measured EC50 and inactives only a lower limit.
RESULT_TYPE: EC50

I would be grateful if you could share the reported EC50 for Cc1sc(NC(=O)c2ccco2)c(CN2CCN(Cc3ccccc3)CC2)c1C .
3390 nM (active)

I would be grateful if you could share the reported EC50 for CCc1ccc(CNCCc2ccc(F)cc2)cc1 .
< 100 nM (active)

I would be grateful if you could share the reported EC50 for CCOC(=O)c1c(NC(=O)CSc2nnnn2-c2ccccc2)sc2c1CC(C)(C)NC2(C)C .
831 nM (active)

I would be grateful if you could share the reported EC50 for O=[N+]([O-])c1cc(-c2nc3nc4ccccc4nc3n2CCc2ccccc2)cc([N+](=O)[O-])c1 .
< 100 nM (active)

I would be grateful if you could share the reported EC50 for COCC1CCN(Cc2c[nH]nc2-c2cc3ccccc3o2)C1 (stereo not given) .
760 nM (active)

I would be grateful if you could share the reported EC50 for c1ccc(CC2CCN(C3=Nc4cccc5cccc3c45)CC2)cc1 .
935 nM (active)

I would be grateful if you could share the reported EC50 for Cc1c(C(=O)Nc2ccc(-c3nnc4n3CCCCC4)cc2)oc2ccc(Br)cc12 .
1180 nM (active)

I would be grateful if you could share the reported EC50 for COc1ccc(CNc2ccc(Cl)cc2)cc1Cn1ccnc1 .
114 nM (active)

I would be grateful if you could share the reported EC50 for Cc1nn2c(O)cc(C(C)(C)C)nc2c1-c1ccccc1 .
1850 nM (active)

I would be grateful if you could share the reported EC50 for C/C(=N\Nc1cccc(Cl)c1)c1ccncc1 .
1420 nM (active)
